The measurements presented in this section are drawn from ChEMBL document CHEMBL2390844.

# assay-comment: Antidermatophytic activity against Trichophyton mentagrophytes var. erinacei NCPF 375 after 7 days by broth microdilution method
# Assay type: functional
# study-conditions: Arthroderma benhamiae
quantity-measured: MIC (µg/mL)
# unit: µg/mL | format: bare number

stdin: // returns reported MIC for input `N#CC1(c2ccccc2)CCN(Cc2oc(CCl)cc(=O)c2O)CC1`
stdout: 16

stdin: // query: `CC(=O)c1ccc(N2CCN(Cc3oc(CCl)cc(=O)c3O)CC2)cc1`
stdout: 16

stdin: // query: `Cc1ccc(N2CCN(Cc3oc(CCl)cc(=O)c3O)CC2)cc1`
stdout: 4

stdin: // query: `Cc1ccccc1N1CCN(Cc2oc(CCl)cc(=O)c2O)CC1`
stdout: 8

stdin: // query: `O=c1cc(CCl)oc(CN2CCN(Cc3ccc(C(F)(F)F)cc3)CC2)c1O`
stdout: 4

stdin: // query: `Cc1cccc(CN2CCN(Cc3oc(CCl)cc(=O)c3O)CC2)c1`
stdout: 16

stdin: // query: `Cc1cccc(N2CCN(Cc3oc(CCl)cc(=O)c3O)CC2)c1C`
stdout: 4
